test: Phosphate binding studies of various lanthanum carbonate hydrates; conditions: 3 min; pH 3.0; two-fold molar excess of lanthanum carbonate hydrate over phosphate
Task for the reader: assign each of the following molecules its reported % Phosphate removed.
# unit: % | format: bare number

Query string: // lookup % Phosphate removed for O.O.O.O.O=C([O-])[O-].O=C([O-])[O-].O=C([O-])[O-].[La+3].[La+3] [Tetrahydrate, lanthanum carbonate tetrahydrate]
Result string: 73.64

Query string: Can you check O.O.O=C([O-])[O-].O=C([O-])[O-].O=C([O-])[O-].[La+3].[La+3] [Dihydrate, lanthanum carbonate dihydrate] next?
Result string: 93.00

Query string: Can you check O.O.O.O.O.O.O=C([O-])[O-].O=C([O-])[O-].O=C([O-])[O-].[La+3].[La+3] [Hexahydrate] next?
Result string: 60.10

Query string: Can you check O.O=C([O-])[O-].O=C([O-])[O-].O=C([O-])[O-].[La+3].[La+3] [Monohydrate] next?
Result string: 90.05

====

Task for the reader: assign each of the following molecules its reported % Phosphate removed.
test: Phosphate binding studies of various lanthanum carbonate hydrates; details: 1 min; pH 3.0; two-fold molar excess of lanthanum carbonate hydrate over phosphate
# unit: % | format: bare number

Query string: // lookup % Phosphate removed for O.O.O=C([O-])[O-].O=C([O-])[O-].O=C([O-])[O-].[La+3].[La+3] [Dihydrate, lanthanum carbonate dihydrate]
Result string: 94.00

Query string: Can you check O.O.O.O.O.O.O=C([O-])[O-].O=C([O-])[O-].O=C([O-])[O-].[La+3].[La+3] [Hexahydrate] next?
Result string: 57.10

Query string: Can you check O.O=C([O-])[O-].O=C([O-])[O-].O=C([O-])[O-].[La+3].[La+3] [Monohydrate] next?
Result string: 82.73

Query string: Can you check O.O.O.O.O=C([O-])[O-].O=C([O-])[O-].O=C([O-])[O-].[La+3].[La+3] [Tetrahydrate, lanthanum carbonate tetrahydrate] next?
Result string: 64.05
